Values were extracted from the Human Domainome abundance scans (Beltran et al. 2025).

B1: KAT8 regulatory NSL complex subunit 2, residues 28 to 91; numbered along this chain, Q9H9L4 (parent)
chain: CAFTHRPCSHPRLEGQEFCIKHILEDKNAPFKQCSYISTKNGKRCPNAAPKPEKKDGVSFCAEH

# Variants of: B1
# Protocol description: abundance fitness (aPCA) (normalised: wild type 0, dead -1); higher = more abundant; growth selection in yeast, the domain comes from the species named
# Condition details: Homo sapiens
Measured property: abundance fitness
Returns: the value as a bare number; no unit string appended.

Before answering, review these 9 worked examples.
>  <Sequence string>
CAFTHRPCSHPRLEGQEFCIKHVLEDKNAPFKQCSYISTKNGKRCPNAAPKPEKKDGVSFCAEH [I23V]

>  <abundance fitness>
-0.124

$$$$
>  <Sequence string>
CAFTHRPCSHPRLEGQEFCMKHILEDKNAPFKQCSYISTKNGKRCPNAAPKPEKKDGVSFCAEH [I20M]

>  <abundance fitness>
-0.031

$$$$
>  <Sequence string>
CAFTHRPCSHPRLEGQEFCIKHILEDKNCPFKQCSYISTKNGKRCPNAAPKPEKKDGVSFCAEH [A29C]

>  <abundance fitness>
-0.151

$$$$
>  <Sequence string>
CAFTHRPCSHPRLEGQEFCIKHILEGKNAPFKQCSYISTKNGKRCPNAAPKPEKKDGVSFCAEH [D26G]

>  <abundance fitness>
-0.197

$$$$
>  <Sequence string>
CAFTHRPCSHPRLEGQEFSIKHILEDKNAPFKQCSYISTKNGKRCPNAAPKPEKKDGVSFCAEH [C19S]

>  <abundance fitness>
-0.851

$$$$
>  <Sequence string>
CAFTHRPCSHPRLEGQEFCIKHILEDKNAPFKQCSYISTKNGKRCPNAAPKPEKKDGVSFCADH [E63D]

>  <abundance fitness>
0.003

$$$$
>  <Sequence string>
CAFTHRPCSHPRLEGQEFCIKHILEDKNAPFKQCSCISTKNGKRCPNAAPKPEKKDGVSFCAEH [Y36C]

>  <abundance fitness>
-0.173

$$$$
>  <Sequence string>
CAFTHRPCSHPRLEGKEFCIKHILEDKNAPFKQCSYISTKNGKRCPNAAPKPEKKDGVSFCAEH [Q16K]

>  <abundance fitness>
-0.143

$$$$
>  <Sequence string>
CAFTHRICSHPRLEGQEFCIKHILEDKNAPFKQCSYISTKNGKRCPNAAPKPEKKDGVSFCAEH [P7I]

>  <abundance fitness>
-0.096

$$$$

Measured abundance fitness of CAFTHRPCSHPRLECQEFCIKHILEDKNAPFKQCSYISTKNGKRCPNAAPKPEKKDGVSFCAEH [G15C] : -0.403
